molecular target: T1, hNPR1-mFc:hANP or hNPR1-hFc:hANP complex (human, UniProt P01160 124-151); experiment: SPR, mAb captured, 37C
T1 construct: also called human NPR1 complexed to ANP
koff values for the binders below.
Please state the figure in s⁻¹; there is no need to write the unit.

binder | readout.number
mAb25497 (antibody, human IgG4, V domains shown) VH: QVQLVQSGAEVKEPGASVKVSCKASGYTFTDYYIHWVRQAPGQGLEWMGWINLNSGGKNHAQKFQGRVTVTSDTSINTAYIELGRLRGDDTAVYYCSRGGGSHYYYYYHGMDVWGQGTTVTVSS VL: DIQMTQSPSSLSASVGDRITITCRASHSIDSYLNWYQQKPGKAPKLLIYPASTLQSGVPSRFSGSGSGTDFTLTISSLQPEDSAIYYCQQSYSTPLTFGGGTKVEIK | 0.000102
mAb22809 (antibody, human IgG4, V domains shown) VH: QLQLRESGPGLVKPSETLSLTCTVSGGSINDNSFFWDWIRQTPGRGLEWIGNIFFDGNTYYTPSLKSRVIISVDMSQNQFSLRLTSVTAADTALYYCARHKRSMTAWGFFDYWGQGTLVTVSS VL: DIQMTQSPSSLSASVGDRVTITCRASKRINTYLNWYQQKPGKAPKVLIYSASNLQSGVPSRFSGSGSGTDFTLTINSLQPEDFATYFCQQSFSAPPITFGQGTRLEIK | 0.000166
mAb25479 (antibody, human IgG4, V domains shown) VH: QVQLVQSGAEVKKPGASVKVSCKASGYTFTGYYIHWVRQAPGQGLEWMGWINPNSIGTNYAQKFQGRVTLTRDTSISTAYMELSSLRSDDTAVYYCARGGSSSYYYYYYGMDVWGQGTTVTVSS VL: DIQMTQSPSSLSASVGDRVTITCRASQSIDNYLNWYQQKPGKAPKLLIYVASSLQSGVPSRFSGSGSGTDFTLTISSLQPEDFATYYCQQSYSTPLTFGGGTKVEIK | 0.000134

Ask: Tell me the measured koff of mAb22805 (antibody, human IgG4, V domains shown) VH: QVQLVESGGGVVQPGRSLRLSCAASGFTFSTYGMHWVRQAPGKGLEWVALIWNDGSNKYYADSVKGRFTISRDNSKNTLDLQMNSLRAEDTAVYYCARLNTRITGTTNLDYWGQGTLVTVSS VL: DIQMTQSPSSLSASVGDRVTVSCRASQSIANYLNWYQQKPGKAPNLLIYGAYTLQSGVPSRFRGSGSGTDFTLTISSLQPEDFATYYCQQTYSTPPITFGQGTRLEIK , please.
Result: 0.000295

Ask: Tell me the measured koff of mAb22810 (antibody, human IgG4, V domains shown) VH: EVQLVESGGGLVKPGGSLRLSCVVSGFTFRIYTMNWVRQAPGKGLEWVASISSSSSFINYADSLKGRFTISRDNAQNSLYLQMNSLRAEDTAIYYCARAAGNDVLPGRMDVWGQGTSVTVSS VL: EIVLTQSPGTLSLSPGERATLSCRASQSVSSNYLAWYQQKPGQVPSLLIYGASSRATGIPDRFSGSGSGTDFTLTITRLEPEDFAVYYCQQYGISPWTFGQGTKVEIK , please.
Result: 0.00104

Sourced from patent US20240309103A1
